- Experiment Description: in vitro
- Condition: rat, hepatocytes
Measured hepatocyte CLint of individual entries
Express it in µL/min/1e6 cells; write the number only.

Structure String: N#CC1(NC(=O)[C@@H]2CCCC[C@H]2C(=O)N2CCN(c3ccccc3)CC2)CC1
hepatocyte CLint, µL/min/1e6 cells: 36

Tell me the measured hepatocyte CLint of `Cc1nn(C)c2cc(N3CCN(C(=O)[C@@H]4CCCC[C@H]4C(=O)NC4(C#N)CC4)[C@H](C)C3)ccc12` , please.
4.6

Find the recorded hepatocyte CLint belonging to `COc1cc(N2CCN(C(=O)[C@@H]3CCCC[C@H]3C(=O)NC3(C#N)CC3)[C@H](C)C2)ccc1C1CC1` and report it.
13

So what's the measured hepatocyte CLint for this one? `Cc1noc2cc(N3CCN(C(=O)[C@@H]4CCCC[C@H]4C(=O)NC4(C#N)CC4)[C@H](C)C3)ccc12`
9.4

Requested field: hepatocyte CLint. Item: `COc1ccc(N2CCN(C(=O)[C@@H]3CCCC[C@H]3C(=O)NC3(C#N)CC3)CC2)cc1`
42
